Target: PTPα (Homo sapiens, UniProt P18433)
Sequence (P18433 20-802): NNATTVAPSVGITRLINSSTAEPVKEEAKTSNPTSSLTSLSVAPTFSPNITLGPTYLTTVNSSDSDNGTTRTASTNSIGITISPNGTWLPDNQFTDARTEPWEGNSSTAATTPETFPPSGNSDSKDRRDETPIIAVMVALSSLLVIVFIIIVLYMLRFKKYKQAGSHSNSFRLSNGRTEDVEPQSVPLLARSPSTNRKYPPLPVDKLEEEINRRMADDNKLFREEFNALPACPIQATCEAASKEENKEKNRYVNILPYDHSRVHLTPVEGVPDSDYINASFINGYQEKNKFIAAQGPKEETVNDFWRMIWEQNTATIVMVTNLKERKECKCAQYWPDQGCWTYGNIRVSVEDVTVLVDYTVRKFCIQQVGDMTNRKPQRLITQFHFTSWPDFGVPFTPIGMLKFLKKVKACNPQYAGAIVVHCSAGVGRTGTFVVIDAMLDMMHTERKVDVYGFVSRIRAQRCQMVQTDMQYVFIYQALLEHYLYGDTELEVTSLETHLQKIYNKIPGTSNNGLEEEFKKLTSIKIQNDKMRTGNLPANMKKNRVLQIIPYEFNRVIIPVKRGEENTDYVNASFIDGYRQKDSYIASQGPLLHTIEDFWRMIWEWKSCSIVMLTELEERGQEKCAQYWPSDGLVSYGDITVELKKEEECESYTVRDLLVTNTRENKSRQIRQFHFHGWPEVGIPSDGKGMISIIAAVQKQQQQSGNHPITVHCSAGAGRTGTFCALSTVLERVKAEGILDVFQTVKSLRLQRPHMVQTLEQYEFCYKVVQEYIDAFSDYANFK
Assay: In vitro PTPase inhibition assay (pNPP, colorimetric), PTPα
Type: biochemical
Conditions: Table 8; 100 μM compound
Experimental: The ability of the compounds of the present invention, such as the cinnamic 4 acid derivative compounds of Example 2, to inhibit the PTPase activity of PTP-1B, CD45, PTP-1C, and PTPα was determined using modifications of the PTP-1B and CD45 activity assays described in Examples 3 and 4. First, 0.001 mmol of the cinnamic acid derivative (or other PTPase inhibitor compound) was dissolved in 100 ul of DMSO to create a 10 mM stock solution. […]
Listing of entries alongside the reported % inhibition of PTPα at 100 μM.
Measured metric: % inhibition of PTPα at 100 μM

Compound: CCCCCCCCCC(OC(=O)c1ccc(/C=C/C(=O)O)cc1)C(=O)NCCC(=O)O (racemic)
Observed: 82%
--
Compound: O=C(O)/C=C/c1ccc(C(OC(=O)CCC2CCCC2)C(=O)NCCC(=O)O)cc1 (racemic)
Observed: 0%
--
Compound: O=C(O)/C=C/c1ccc(C(OC(=O)c2ccc([N+](=O)[O-])cc2)C(=O)NCCC(=O)O)cc1 (racemic)
Observed: 87%
--
Compound: O=C(O)/C=C/c1ccc(C(OC(=O)/C=C/c2ccc(F)cc2)C(=O)NCCCCCC(=O)O)cc1 (racemic)
Observed: 73%

----------
Biological target: PTP-1B (Homo sapiens, UniProt P18031)
Sequence (P18031 3-277 limits assumed): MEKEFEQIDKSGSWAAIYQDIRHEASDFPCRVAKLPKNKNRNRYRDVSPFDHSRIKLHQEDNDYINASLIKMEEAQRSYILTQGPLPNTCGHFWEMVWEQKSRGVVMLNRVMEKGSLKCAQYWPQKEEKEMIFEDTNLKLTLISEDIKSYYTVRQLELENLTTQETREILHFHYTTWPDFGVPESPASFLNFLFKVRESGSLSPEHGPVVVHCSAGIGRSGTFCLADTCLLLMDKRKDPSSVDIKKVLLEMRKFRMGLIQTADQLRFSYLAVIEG
In this section we review reported log10 IC50 values for a set of molecules.
Measured metric: log10 IC50 (log10 of the value in nM)

Molecule: COC(=O)CCCCC(=O)OC(c1ccc(/C=C/C(=O)O)cc1)C(O)c1ccc(/C=C/C(=O)O)cc1 (stereo not shown)
Experimental target: PTP-1B (Homo sapiens, UniProt P18031)
log10 IC50: 2.90
--
Molecule: COc1cccc(-c2nc(-c3ccc(/C=C/C(=O)O)cc3)c(-c3ccc(/C=C/C(=O)O)cc3)[nH]2)c1O
Experimental target: PTP-1B (Homo sapiens, UniProt P18031)
log10 IC50: 2.61
--
Molecule: O=C(O)/C=C/c1ccc(-c2nc(-c3cccc(F)c3F)[nH]c2-c2ccc(/C=C/C(=O)O)cc2)cc1
Experimental target: PTP-1B (Homo sapiens, UniProt P18031)
log10 IC50: 3.00
--
Molecule: O=C(O)/C=C/c1ccc(-c2nc(-c3cc(F)cc(F)c3)[nH]c2-c2ccc(/C=C/C(=O)O)cc2)cc1
Experimental target: PTP-1B (Homo sapiens, UniProt P18031)
log10 IC50: 3.11
--
Molecule: O=C(O)/C=C/c1ccc(-c2nc(-c3ccc4c(c3)OCCO4)[nH]c2-c2ccc(/C=C/C(=O)O)cc2)cc1
Experimental target: PTP-1B (Homo sapiens, UniProt P18031)
log10 IC50: 2.63
--
Molecule: O=C(O)/C=C/c1ccc(-c2nc3ccccc3nc2-c2ccc(/C=C/C(=O)O)cc2)cc1
Experimental target: PTP-1B (Homo sapiens, UniProt P18031)
log10 IC50: 3.74
--
Molecule: O=C(O)/C=C/c1ccc(-c2[nH]cnc2C(=O)OCc2ccccc2)cc1
Experimental target: PTP-1B (Homo sapiens, UniProt P18031)
log10 IC50: 3.53

----------
Parameter: IC50. Scope: all listed entries.
Biological target: PTP-1B (Homo sapiens, UniProt P18031)
Sequence (P18031 3-277 limits assumed): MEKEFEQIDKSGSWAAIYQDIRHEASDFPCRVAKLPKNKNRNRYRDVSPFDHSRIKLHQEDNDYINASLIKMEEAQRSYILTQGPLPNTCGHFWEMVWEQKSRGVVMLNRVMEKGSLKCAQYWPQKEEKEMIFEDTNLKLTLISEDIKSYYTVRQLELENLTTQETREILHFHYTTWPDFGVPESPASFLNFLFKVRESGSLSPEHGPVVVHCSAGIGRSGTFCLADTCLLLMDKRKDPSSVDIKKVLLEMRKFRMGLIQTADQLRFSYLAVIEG
Measured metric: IC50 (nM)

Molecule smiles: O=C(O)/C=C/c1ccc(-c2nc(-c3cc4ccccc4c4ccccc34)[nH]c2-c2ccc(/C=C/C(=O)O)cc2)cc1
Observed: 26000
//
Molecule smiles: CCCCn1cnc(-c2ccc(/C=C/C(=O)O)cc2)c1-c1ccc(/C=C/C(=O)O)cc1
Observed: 700
//
Molecule smiles: O=C(O)/C=C/c1ccc(-c2ncn(-c3ccccc3)c2-c2ccc(/C=C/C(=O)O)cc2)cc1
Observed: 1500
//
Molecule smiles: COc1ccc(-c2nc(-c3ccc(/C=C/C(=O)O)cc3)c(-c3ccc(/C=C/C(=O)O)cc3)[nH]2)c(C)c1C
Observed: 1800
